# reported pest or weed control at 250 g/ha; entries follow
# Tested on: Lolium perenne (LOLPE)
# test: Example B post-emergence herbicidal test, LOLPE
# Type: in vivo
# conditions-used: Lolium perenne, 312 h, rate 250 g/ha, evaluated after 13 days, scale 0-100, read-out: Post-emergence activity LOLPE (100=total damage to plant; 0=no damage to plant)
Your answer should be a plain number; it is taken to be in %.

// worked examples, pest or weed control at 250 g/ha included
molecule | unit-abbreviation | pest or weed control at 250 g/ha
COCCOC(=O)N1CCC(CC2CC(=O)C(c3c(C)cc(C)cc3C)C2=O)CC1 (centres unmarked) [Compound T123] | % | 70
Cc1cc(-c2ccc(F)cc2)cc(C)c1C1C(=O)C/C(=C\C2CCOCC2)C1=O (centres unmarked) [Compound T61] | % | 90
Cc1cc(C)c(C2C(=O)CC(CC3CCN(C(=O)C(C)Cl)CC3)C2=O)c(C)c1 (centres unmarked) [Compound T87] | % | 90
Cc1cc(C)c(C2C(=O)CC(C)(CC3CCOC3)C2=O)c(C)c1 (centres unmarked) [Compound T30] | % | 80
Cc1cc(C)c(C2=C(OC(=O)C3CC3)CC(CC3CCN(C(=O)C4CC4)C3)C2=O)c(C)c1 (centres unmarked) [Compound P57] | % | 60

Please give measured pest or weed control at 250 g/ha of the following entry: Cc1cc(C)c(C2=C(OC(=O)c3ccco3)CC(CC3CCN(C(=O)c4ccco4)C3)C2=O)c(C)c1 (centres unmarked) [Compound P62]
80

Please give measured pest or weed control at 250 g/ha of the following entry: Cc1cc(C)c(C2=C(OS(=O)(=O)C3CC3)CC(CC3CCOC3)C2=O)c(C)c1 (centres unmarked) [Compound P28]
100

Please give measured pest or weed control at 250 g/ha of the following entry: Cc1cc(C)c(C2C(=O)CC(CC3CCN(c4ccc(Cl)cc4)CC3)C2=O)c(C)c1 (centres unmarked) [Compound T60]
20

Please give measured pest or weed control at 250 g/ha of the following entry: COc1ccc(C(=O)OC2=C(c3c(C)cc(C)cc3C)C(=O)CC2CC2CCOC2)cc1 (centres unmarked) [Compound P71]
100

Please give measured pest or weed control at 250 g/ha of the following entry: CON1CCC(CC2CC(OC(C)=O)=C(c3c(C)cc(C)cc3C)C2=O)CC1 (centres unmarked) [Compound P50]
100

Please give measured pest or weed control at 250 g/ha of the following entry: Cc1cc(C)c(C2C(=O)CC(CC3CCN(C(=O)c4ccco4)C3)C2=O)c(C)c1 (centres unmarked) [Compound T147]
40

Please give measured pest or weed control at 250 g/ha of the following entry: CC(=O)N1CCC(CC2CC(=O)C(c3c(C)cc(C)cc3C)C2=O)CC1 (centres unmarked) [Compound T24]
100

Please give measured pest or weed control at 250 g/ha of the following entry: Cc1cc(-c2ccc(Cl)cc2)cc(C)c1C1C(=O)CC(CC2CCOCC2)C1=O (centres unmarked) [Compound T64]
90

Please give measured pest or weed control at 250 g/ha of the following entry: COC(=O)N1CCC(CC2CC(=O)C(c3c(C)cc(C)cc3C)C2=O)C1 (centres unmarked) [Compound T43]
100

Please give measured pest or weed control at 250 g/ha of the following entry: Cc1cc(C)c(C2C(=O)CC(CC3CCN(C(=O)C(C)(C)CCl)C3)C2=O)c(C)c1 (centres unmarked) [Compound T145]
40

Please give measured pest or weed control at 250 g/ha of the following entry: Cc1cc(C)c(C2C(=O)C(C)C(CC3CCOC3)C2=O)c(C)c1 (centres unmarked) [Compound T29]
90

Please give measured pest or weed control at 250 g/ha of the following entry: Cc1cc(C)c(C2C(=O)C/C(=C\C3CCCCN3S(C)(=O)=O)C2=O)c(C)c1 (centres unmarked) [Compound T47]
30
